tested on: Staphylococcus epidermidis; assay: Antibacterial activity against methicillin-resistant Staphylococcus epidermidis 07A066 by broth microdilution method; assay type: functional
MEASURED_ATTRIBUTE: MIC (µg/mL)
Answer with a number only, understood to be in µg/mL.

Worked cases, answers included:
ENTRY_SMILES	UNIT_SYMBOL	MIC
CC[C@H]1OC(=O)[C@H](C)C(=O)[C@H](C)[C@@H](O[C@@H]2O[C@H](C)C[C@H](N(C)C)[C@H]2O)[C@@](C)(OC)C[C@@H](C)C(=O)[C@H](C)[C@H]2N(CCCSc3nnc(C)s3)C(=O)O[C@]12C	µg/mL	0.125
CC[C@H]1OC(=O)[C@H](C)C(=O)[C@H](C)[C@@H](O[C@@H]2O[C@H](C)C[C@H](N(C)C)[C@H]2O)[C@@](C)(OC)C[C@@H](C)C(=O)[C@H](C)[C@H]2N(CCCSc3nnnn3-c3ccccc3)C(=O)O[C@]12C	µg/mL	0.5
CC[C@H]1OC(=O)[C@H](C)C(=O)[C@H](C)[C@@H](O[C@@H]2O[C@H](C)C[C@H](N(C)C)[C@H]2O)[C@@](C)(OC)C[C@@H](C)C(=O)[C@H](C)[C@H]2N(CCCSc3nc4cc(OC)ccc4s3)C(=O)O[C@]12C	µg/mL	0.5
CC[C@H]1OC(=O)[C@H](C)C(=O)[C@H](C)[C@@H](O[C@@H]2O[C@H](C)C[C@H](N(C)C)[C@H]2O)[C@@](C)(OC)C[C@@H](C)C(=O)[C@H](C)[C@H]2N(CCCSc3nc(-c4cccnc4)c[nH]3)C(=O)O[C@]12C	µg/mL	0.125
CC[C@H]1OC(=O)[C@H](C)C(=O)[C@H](C)[C@@H](O[C@@H]2O[C@H](C)C[C@H](N(C)C)[C@H]2O)[C@@](C)(OC)C[C@@H](C)C(=O)[C@H](C)[C@H]2N(CCCSc3ccoc3C)C(=O)O[C@]12C	µg/mL	0.25

Under Staphylococcus epidermidis: report MIC of CC[C@H]1OC(=O)[C@H](C)C(=O)[C@H](C)[C@@H](O[C@@H]2O[C@H](C)C[C@H](N(C)C)[C@H]2O)[C@@](C)(OC)C[C@@H](C)C(=O)/C(C)=C/[C@]1(C)OC(=O)NCCCSc1ncnc2[nH]ncc12 .
0.5

Under Staphylococcus epidermidis: report MIC of CC[C@H]1OC(=O)[C@H](C)C(=O)[C@H](C)[C@@H](O[C@@H]2O[C@H](C)C[C@H](N(C)C)[C@H]2O)[C@@](C)(OC)C[C@@H](C)C(=O)[C@H](C)[C@H]2N(CCCSc3nnnn3C)C(=O)O[C@]12C .
1

Under Staphylococcus epidermidis: report MIC of CC[C@H]1OC(=O)[C@H](C)C(=O)[C@H](C)[C@@H](O[C@@H]2O[C@H](C)C[C@H](N(C)C)[C@H]2O)[C@@](C)(OC)C[C@@H](C)C(=O)[C@H](C)[C@H]2N(CCCSc3nncs3)C(=O)O[C@]12C .
0.25

Under Staphylococcus epidermidis: report MIC of CC[C@H]1OC(=O)[C@H](C)C(=O)[C@H](C)[C@@H](O[C@@H]2O[C@H](C)C[C@H](N(C)C)[C@H]2O)[C@@](C)(OC)C[C@@H](C)C(=O)[C@H](C)[C@H]2N(CCCSc3nc(C)cc(C)n3)C(=O)O[C@]12C .
0.5
